Parameter: Ryegrass, Italian plant response rating. Scope: all listed entries.
Tested on: Italian ryegrass (Lolium multiflorum)
Assay: Test B pre-/postemergence plant response
Type: in vivo
Details: Preemergence; 8 g ai/ha; scale 0 to 100
endpointLabel: Ryegrass, Italian plant response rating

>  <structureAsSmiles>
Cc1cc(-c2ccc(Cl)cc2)nn1-c1c(OS(=O)(=O)c2ccccc2)cnn(C)c1=O

>  <endpointLabel>
Ryegrass, Italian plant response rating

>  <value>
100

$$$$
>  <structureAsSmiles>
CCc1cc(-c2ccc(Cl)cc2)nn1-c1c(O)cnn(C)c1=O

>  <endpointLabel>
Ryegrass, Italian plant response rating

>  <value>
90

$$$$
>  <structureAsSmiles>
CCc1cc(-c2ccc(C(F)(F)F)cc2)nn1-c1c(O)c(OC)nn(C)c1=O

>  <endpointLabel>
Ryegrass, Italian plant response rating

>  <value>
100

$$$$
>  <structureAsSmiles>
CCCc1cc(-c2ccc(C(F)(F)F)cc2)nn1-c1c(O)cnn(C)c1=O

>  <endpointLabel>
Ryegrass, Italian plant response rating

>  <value>
75

$$$$

----------
System: umbrella sedge (Cyperus difformis)
Assay: Test B flooded paddy test plant response
Type: in vivo
Conditions: Flood (flooded paddy test), 125 g ai/ha; scale 0 to 100, 0 no effect, 100 complete control
Excerpt: Plant species in the flooded paddy test consisted of rice (Oryza sativa), umbrella sedge (Cyperus difformis), ducksalad (Heteranthera limosa) and barnyardgrass (Echinochloa crus-galli) grown to the 2-leaf stage for testing. […] Treated plants and controls were maintained in a greenhouse for 13 to 15 days, after which time all species were compared to controls and visually evaluated. […]
Parameter: Plant response rating, Sedge, Umbrella. Scope: all listed entries.
endpointLabel: Plant response rating, Sedge, Umbrella

>  <structureAsSmiles>
CCn1ncc(O)c(-c2cn(-c3ccc(Cl)cc3)nc2C)c1=O

>  <endpointLabel>
Plant response rating, Sedge, Umbrella

>  <value>
0

$$$$
>  <structureAsSmiles>
CCCc1cc(-c2ccc(Cl)cc2)nn1-c1c(O)cnn(C)c1=O

>  <endpointLabel>
Plant response rating, Sedge, Umbrella

>  <value>
0

$$$$
>  <structureAsSmiles>
CCc1cc(-c2ccc(Cl)cc2)nn1-c1c(O)cnn(C)c1=O

>  <endpointLabel>
Plant response rating, Sedge, Umbrella

>  <value>
0

$$$$
>  <structureAsSmiles>
Cc1cc(-c2ccc(Cl)cc2)nn1-c1c(OS(=O)(=O)c2cccc3ccccc23)cnn(C)c1=O

>  <endpointLabel>
Plant response rating, Sedge, Umbrella

>  <value>
0

$$$$
>  <structureAsSmiles>
Cc1cc(-c2ccc(Br)cc2)nn1-c1c(OC(=O)C2CC2)cnn(C)c1=O

>  <endpointLabel>
Plant response rating, Sedge, Umbrella

>  <value>
80

$$$$

----------
Test system: winter barley (Hordeum vulgare)
Assay: Test B postemergence plant response
Assay type: in vivo
Settings: 8 g ai/ha, postemergence; 0-100 scale

>  <structureAsSmiles>
CCc1cc(-c2ccc(C(F)(F)F)cc2)nn1-c1c(O)c(OC)nn(C)c1=O

>  <Barley plant response rating>
90

$$$$
>  <structureAsSmiles>
Cc1cc(-c2ccc(Cl)cc2)nn1-c1c(OC(=O)CC(C)C)cnn(C)c1=O

>  <Barley plant response rating>
0

$$$$
>  <structureAsSmiles>
CCOC(=O)Oc1cnn(C)c(=O)c1-n1nc(-c2ccc(Cl)cc2)cc1C

>  <Barley plant response rating>
0

$$$$
